# experimentalSystem: human CD46 expressed on 293 cells (human) (UniProt P15529)
# procedureDetails: FACS, 293 cells expressing human CD46, pH 7.4
observedProperty: EC50 (µg/mL)
Give your result in µg/mL as a bare value.

Solved cases below.
BA-133-04-02 (antibody, V domains shown) VH: EVQLVESGGGLVQPGGSLRLSCAASGGSVSSYDISWIRQSPSRGLEWLGVIWTDGGTNYNSAFMSRFTISRDDSKNTAYLQMNSLKTEDTAVYYCERVYDGYPWFAYWGQGTLVTVSS VL: AIQLTQSPSSLSASVGDRVTITCRASQGIANYLNWYLQKPGQSPQLLIYYTSSLHSGVPDRFSGSGSGTDFTLKISRVEAEDVGVYYCQQYIKLPWTFGQGTKVEIK :: 1.09
Benchmark (BM) BA-133-00-01 (antibody, V domains shown) VH: QVQLQESGPGLVKPSETLSLTCTVSGGSVSSYDISWIRQPPGKGLEWIGVIWTDGGTNYNSAFMSRVTISVDTSKNQFSLKLSSVTAADTAVYYCARVYDGYPWFAYWGQGTLVTVSS VL: DIQMTQSPSSLSASVGDRVTITCRASQGISNYLNWYQQKPGKAPKLLIYYTSSLHSGVPSRFSGSGSGTDFTLTISSLQPEDFATYYCQQYIKLPWTFGGGTKLEIKR :: 0.368

The recorded EC50 for BAP133-2-02-12 (antibody, V domains shown) VH: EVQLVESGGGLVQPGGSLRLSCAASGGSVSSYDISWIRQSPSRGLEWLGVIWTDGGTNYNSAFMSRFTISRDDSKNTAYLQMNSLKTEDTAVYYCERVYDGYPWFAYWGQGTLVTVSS VL: AIQLTQSPSSLSASVGDRVTITCRALQGISNYLNWYQQKPGKAPKLLIYYTSSLHSGVPSRFSGSGSGTEFTLTISSLQPDDFATYYCQQYIKLPWTFGQGTKVEIK is 2.23
